Source: ChEMBL document CHEMBL5223190

- testDetails: Inhibition of bovine heart succinate-cytochrome c oxidoreductase activity using submitochondrial particle as source of enzyme measured after 4 mins
- Assay type: mitochondria, Bos taurus, Mitochondria
measure: IC50

chemicalstructure=O=S(=O)(CCCOc1ccc(I)cc1)N1CCC[C@H]1COCOC[C@@H]1CCCN1S(=O)(=O)CCCOc1ccc(I)cc1 measure=IC50 experimentalresult="> 20 µM"

Query: Need IC50, item CCCCCCCCCCS(=O)(=O)N1CCC[C@H]1COCOC[C@@H]1CCCN1S(=O)(=O)CCCOc1ccc(I)cc1
Reply: > 20 µM

----------
Recorded pIC50, one value per entry.
- testDetails: Inhibition of bovine heart NADH oxidase activity using submitochondrial particle as source of enzyme measured after 4 mins
- Assay type: mitochondria, Bos taurus, Mitochondria
On this scale, pIC50 is minus log10 of a concentration expressed in M (mol/L).

chemicalstructure=CCCCCCCCCCS(=O)(=O)N1CCC[C@H]1COCOC[C@@H]1CCCN1S(=O)(=O)CCCOc1ccccc1 measure=pIC50 experimentalresult=6.82
chemicalstructure=CCCCCCCCCCS(=O)(=O)N1CCC[C@H]1COCOC[C@@H]1CCCN1S(=O)(=O)CCCOCCCCCC measure=pIC50 experimentalresult=7.32
chemicalstructure=CCCCCCCCCCS(=O)(=O)N1CCC[C@H]1COCOC[C@@H]1CCCN1S(=O)(=O)CCCCCCCCCC measure=pIC50 experimentalresult=7.06

Next up:
Query: Need pIC50, item CCCCCCCCc1ccc(S(=O)(=O)N2CCC[C@H]2COCOC[C@@H]2CCCN2S(=O)(=O)c2ccc(CCCCCCCC)cc2)cc1
Reply: 5.47

----------
- testDetails: Inhibition of bovine heart NADH oxidase activity using submitochondrial particle as source of enzyme measured after 4 mins
- Assay type: mitochondria, Bos taurus, Mitochondria
measure: log10 IC50 (log10 of the value in nM)
For clarity, the numbers are log10 values of IC50 expressed in nM.

chemicalstructure=CCCCCCc1ccc(S(=O)(=O)N2CCC[C@H]2COCOC[C@@H]2CCCN2S(=O)(=O)c2ccc(CCCCCC)cc2)cc1 measure="log10 IC50" experimentalresult=1.99
chemicalstructure=Cc1ccc(OCCCS(=O)(=O)N2CCC[C@H]2COCOC[C@@H]2CCCN2S(=O)(=O)CCCOc2ccc(C)cc2)cc1 measure="log10 IC50" experimentalresult=2.43
chemicalstructure=Cc1ccc(S(=O)(=O)N2[C@H](COCOC[C@@H]3C[C@@H]4CCCC[C@@H]4N3S(=O)(=O)c3ccc(C)cc3)C[C@@H]3CCCC[C@@H]32)cc1 measure="log10 IC50" experimentalresult=3.76

Query: Need log10 IC50, item COc1ccc(S(=O)(=O)N2CCC[C@H]2COCOC[C@@H]2CCCN2S(=O)(=O)c2ccc(OC)cc2)cc1
Reply: 3.64

Query: Follow-up item: CCCCc1ccc(S(=O)(=O)N2CCC[C@H]2COCOC[C@@H]2CCCN2S(=O)(=O)c2ccc(CCCC)cc2)cc1
Reply: 2.15

Query: Follow-up item: O=S(=O)(c1ccccc1)N1CCC[C@H]1COCOC[C@@H]1CCCN1S(=O)(=O)c1ccccc1
Reply: 3.61

Query: Follow-up item: CCCCCCCCS(=O)(=O)N1CCC[C@H]1COCOC[C@@H]1CCCN1S(=O)(=O)CCCCCCCC
Reply: 2.56

----------
- testDetails: Inhibition of bovine heart NADH oxidase activity using submitochondrial particle as source of enzyme measured after 4 mins
- Assay type: mitochondria, Bos taurus, Mitochondria
measure: IC50 (µM)
# unit: µM | format: bare number

Here's what some known entries look like.
chemicalstructure=Cc1ccc(S(=O)(=O)N2CC[C@@H](OCO[C@@H]3CCN(S(=O)(=O)c4ccc(C)cc4)C3)C2)cc1 experimentalresult=31
chemicalstructure=Cc1ccc(S(=O)(=O)N2CC[C@@H](COCOC[C@@H]3CCN(S(=O)(=O)c4ccc(C)cc4)C3)C2)cc1 experimentalresult=1.3
chemicalstructure=Cc1ccc(S(=O)(=O)N2CCC[C@@H]2COCOC[C@@H]2CCCN2S(=O)(=O)c2ccc(C)cc2)cc1 experimentalresult=0.81

Next up:
Query: Need IC50, item Cc1ccc(S(=O)(=O)N2CCC[C@H]2COCOC[C@@H]2CCCN2S(=O)(=O)c2ccc(C)cc2)cc1
Reply: 0.89
